B1: library; a variant is named by its letters at N, in order (parent)
chain: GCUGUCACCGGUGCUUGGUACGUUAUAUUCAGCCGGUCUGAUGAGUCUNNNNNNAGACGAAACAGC

Variants of: B1
Test: normalized RNA/DNA level without ligand (relative to sTRSVctl = 100) (log10 (% of sTRSVctl)); HEK293T overexpressing SLC46A1; higher = less ribozyme self-cleavage, higher mRNA level
Conditions: without (6R,S)-folinic acid; ligand present: no
observed_property: normalized RNA/DNA level without ligand (log10)
Form field (numeric): enter value without unit.

Some solved cases for reference:
{"mutant_id": "CGGUAG", "test_value": 1.93}
{"mutant_id": "UGACUA", "test_value": 1.96}

[Q] // normalized RNA/DNA level without ligand (log10) lookup, key: GACCCC
[A] 2.02

[Q] Tell me the measured normalized RNA/DNA level without ligand (log10) of GGAACC , please.
[A] 2.04

[Q] Need normalized RNA/DNA level without ligand (log10), item GCUCGC
[A] 2.02

[Q] Data request, read-out normalized RNA/DNA level without ligand (log10), for UAAGGG
[A] 1.6

[Q] Given UAUCCU , state its recorded normalized RNA/DNA level without ligand (log10).
[A] 2.01

[Q] # query: normalized RNA/DNA level without ligand (log10) of entry ACCCAU
[A] 2.01

[Q] normalized RNA/DNA level without ligand (log10) for CGUCAC ?
[A] 2.03
